Value source: patent US20110143948A1

Tested on: ncRNAs (SEQ ID NO 28-89)
EXPERIMENTAL PROTOCOL: ncRNA arrays of melanocytes, keratinocytes, normal skin, melanoma cell lines and patient samples
Design: species or system human
CONDITION SET: melanoma patient 9 sample compared to normal skin
PROPERTY NAME: ncRNA array expression, patient 9
Write no unit; give the number alone.

- SEQ ID NO 57 (TTGTTGTTTTGGGAGATACCCTGTTTAGCCTGAAAGGATTGAGATACTGTAATTGCTATG; listed as DNA, chemistry not given here; listed as Homo sapiens): 0.645
- SEQ ID NO 84 (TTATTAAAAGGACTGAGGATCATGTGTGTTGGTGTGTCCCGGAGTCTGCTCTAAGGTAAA; listed as DNA, chemistry not given here; listed as Homo sapiens): 1.55
- SEQ ID NO 88 (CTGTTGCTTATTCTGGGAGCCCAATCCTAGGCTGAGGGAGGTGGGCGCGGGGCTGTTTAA; listed as DNA, chemistry not given here; listed as Homo sapiens): −1.551

Requested field: ncRNA array expression, patient 9. Item: SEQ ID NO 51 (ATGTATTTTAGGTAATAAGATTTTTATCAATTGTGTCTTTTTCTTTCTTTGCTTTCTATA; listed as DNA, chemistry not given here; listed as Homo sapiens)
0.7789

# lookup: ncRNA array expression, patient 9 of SEQ ID NO 75 (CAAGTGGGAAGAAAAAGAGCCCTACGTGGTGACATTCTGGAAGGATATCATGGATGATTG; listed as DNA, chemistry not given here; listed as Homo sapiens)
1.117

====

Tested on: ncRNAs (SEQ ID NO 28-89)
EXPERIMENTAL PROTOCOL: ncRNA arrays of melanocytes, keratinocytes, normal skin, melanoma cell lines and patient samples
Design: species or system human
CONDITION SET: melanoma patient 4 sample compared to normal skin
PROPERTY NAME: ncRNA array expression, patient 4

Known ncRNA array expression, patient 4 results, listed for orientation:
- SEQ ID NO 33 (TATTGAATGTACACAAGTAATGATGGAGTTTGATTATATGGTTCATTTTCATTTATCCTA; DNA, backbone and methylation of C not given here; listed as Homo sapiens): 3.512
- SEQ ID NO 82 (GAAGTCAGAAACTAAAGTTCCCTTCTAAGACAAAATCCTGCTTTGGAGAAAAAAAAAAAT; listed as DNA, chemistry not given here; listed as Homo sapiens): −3.11

Proceeding to the next substance to report its ncRNA array expression, patient 4.
Sample SEQ ID NO 80 (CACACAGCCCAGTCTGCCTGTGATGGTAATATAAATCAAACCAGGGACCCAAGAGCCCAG; listed as DNA, chemistry not given here; listed as Homo sapiens) — what was its ncRNA array expression, patient 4?
−1.4489

====

substances and their reported ncRNA array expression, patient 27
System: ncRNAs (SEQ ID NO 28-89)
EXPERIMENTAL PROTOCOL: ncRNA arrays of melanocytes, keratinocytes, normal skin, melanoma cell lines and patient samples
Set-up: species or system human
CONDITION SET: melanoma patient 27 sample compared to normal skin

• SEQ ID NO 87 (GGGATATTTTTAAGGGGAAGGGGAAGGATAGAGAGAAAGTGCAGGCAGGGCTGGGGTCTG; listed as DNA, chemistry not given here; listed as Homo sapiens) = −2.214
• SEQ ID NO 57 (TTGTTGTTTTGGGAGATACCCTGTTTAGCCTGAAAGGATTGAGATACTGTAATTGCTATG; listed as DNA, chemistry not given here; listed as Homo sapiens) = 1.446
• SEQ ID NO 55 (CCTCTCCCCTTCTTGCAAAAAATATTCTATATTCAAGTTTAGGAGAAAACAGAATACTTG; listed as DNA, chemistry not given here; listed as Homo sapiens) = −2.019
• SEQ ID NO 81 (CTAGGGGCGGAGTTTCTCGTAAGGGGCAAGGCCAAGGCATCTTGTATTGGGGCTGACAGG; listed as DNA, chemistry not given here; listed as Homo sapiens) = −2.77
• SEQ ID NO 70 (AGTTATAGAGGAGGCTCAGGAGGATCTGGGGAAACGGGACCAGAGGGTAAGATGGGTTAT; listed as DNA, chemistry not given here; listed as Homo sapiens) = −1.848
• SEQ ID NO 83 (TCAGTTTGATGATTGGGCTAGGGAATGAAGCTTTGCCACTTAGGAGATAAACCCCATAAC; listed as DNA, chemistry not given here; listed as Homo sapiens) = −1.43
• SEQ ID NO 77 (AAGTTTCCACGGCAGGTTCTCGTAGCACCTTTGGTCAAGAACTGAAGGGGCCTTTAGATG; listed as DNA, chemistry not given here; listed as Homo sapiens) = −1.387
• SEQ ID NO 84 (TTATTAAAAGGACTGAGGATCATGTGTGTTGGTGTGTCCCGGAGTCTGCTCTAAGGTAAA; listed as DNA, chemistry not given here; listed as Homo sapiens) = 1.88

Bench note: what ncRNA array expression, patient 27 did SEQ ID NO 65 (CACCGTTTTACTTTTTGTGGGGAGGGGAAGCAGTATCAAAATTTCTTCGGGCGCCAGAAC; listed as DNA, chemistry not given here; listed as Homo sapiens) show?
−1.388

What does the data say about its ncRNA array expression, patient 27? Entry: SEQ ID NO 43 (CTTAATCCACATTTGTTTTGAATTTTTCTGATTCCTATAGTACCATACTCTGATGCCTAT; listed as DNA, chemistry not given here; listed as Homo sapiens)
−1.339

So what's the measured ncRNA array expression, patient 27 for this one? SEQ ID NO 76 (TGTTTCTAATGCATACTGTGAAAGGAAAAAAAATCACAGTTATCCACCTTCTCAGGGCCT; listed as DNA, chemistry not given here; listed as Homo sapiens)
−1.555

Field request: ncRNA array expression, patient 27 | item: SEQ ID NO 74 (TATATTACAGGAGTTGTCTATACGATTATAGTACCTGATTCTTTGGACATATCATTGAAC; listed as DNA, chemistry not given here; listed as Homo sapiens)
0.4062

Given the substance SEQ ID NO 34 (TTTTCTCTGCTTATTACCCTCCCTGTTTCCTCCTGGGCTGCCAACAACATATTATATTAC; listed as DNA, chemistry not given here; listed as Homo sapiens) , what is its reported ncRNA array expression, patient 27?
2.945

Name the recorded ncRNA array expression, patient 27 for SEQ ID NO 66 (TCCTTTTTATCTTGCACTCAGATGGTATTTTTAGAGATGTTTCTTCAATCAAAACAAGAT; listed as DNA, chemistry not given here; listed as Homo sapiens) .
2.334

For the substance SEQ ID NO 61 (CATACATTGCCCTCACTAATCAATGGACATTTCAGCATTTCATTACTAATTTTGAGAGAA; listed as DNA, chemistry not given here; listed as Homo sapiens) , what ncRNA array expression, patient 27 is on record?
1.264

====

System: ncRNAs (SEQ ID NO 28-89)
EXPERIMENTAL PROTOCOL: ncRNA arrays of melanocytes, keratinocytes, normal skin, melanoma cell lines and patient samples
Set-up: species or system human
CONDITION SET: melanoma patient 20 sample compared to normal skin
PROPERTY NAME: ncRNA array expression, patient 20
Answer with a number only.

- SEQ ID NO 57 (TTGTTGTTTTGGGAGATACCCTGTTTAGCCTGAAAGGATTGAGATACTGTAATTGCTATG; listed as DNA, chemistry not given here; listed as Homo sapiens): 0.1922

Fill blank: measured ncRNA array expression, patient 20 of the substance SEQ ID NO 62 (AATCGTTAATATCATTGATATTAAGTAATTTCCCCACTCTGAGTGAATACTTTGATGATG; listed as DNA, chemistry not given here; listed as Homo sapiens) is ____.
1.836

Give the measured ncRNA array expression, patient 20 of SEQ ID NO 71 (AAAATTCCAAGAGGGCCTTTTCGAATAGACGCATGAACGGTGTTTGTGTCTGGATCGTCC; listed as DNA, chemistry not given here; listed as Homo sapiens) .
1.577

Requested read-out: ncRNA array expression, patient 20. Entry: SEQ ID NO 48 (ACTTATATTCAGAGCATGTGGATTGGGACTCTGAAGAACAACTTTATGGTGGACACCTTC; listed as DNA, chemistry not given here; listed as Homo sapiens)
1.713

I'd like to know its ncRNA array expression, patient 20. The substance in question is SEQ ID NO 53 (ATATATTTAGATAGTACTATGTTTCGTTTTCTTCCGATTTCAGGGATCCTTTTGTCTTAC; listed as DNA, chemistry not given here; listed as Homo sapiens)
−1.903

Endpoint output: ncRNA array expression, patient 20 of SEQ ID NO 76 (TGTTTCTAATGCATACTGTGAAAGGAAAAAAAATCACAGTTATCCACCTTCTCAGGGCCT; listed as DNA, chemistry not given here; listed as Homo sapiens) . Value?
−1.184

Any idea what ncRNA array expression, patient 20 was measured for SEQ ID NO 80 (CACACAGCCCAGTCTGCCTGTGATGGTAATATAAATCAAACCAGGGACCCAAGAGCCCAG; listed as DNA, chemistry not given here; listed as Homo sapiens) ?
−2.056

Entry under review: SEQ ID NO 43 (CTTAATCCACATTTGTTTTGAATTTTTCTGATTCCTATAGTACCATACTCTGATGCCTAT; listed as DNA, chemistry not given here; listed as Homo sapiens) . Reported ncRNA array expression, patient 20?
−1.239

For the substance shown here, SEQ ID NO 29 (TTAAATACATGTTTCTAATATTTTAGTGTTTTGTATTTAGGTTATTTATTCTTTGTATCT; DNA, backbone and methylation of C not given here; listed as Homo sapiens) , give the reported ncRNA array expression, patient 20.
2.377

Give its ncRNA array expression, patient 20 value. Item: SEQ ID NO 42 (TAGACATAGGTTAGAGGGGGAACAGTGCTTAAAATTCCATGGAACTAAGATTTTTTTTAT; listed as DNA, chemistry not given here; listed as Homo sapiens)
−1.775
